pKd: −log10 of the molar value.
Here's a batch of compounds along with measured pKd for Galectin-3 (Mus musculus, UniProt P16110).
Recorded Metric: pKd

Compound	pKd
CNC(=O)c1cn(C2C(O)C(CO)OC(SC)C2O)nn1 (centres undefined)	3.64
CS[C@H]1O[C@@H](COC2O[C@@H](O)[C@H](O)[C@@H](O)[C@H]2O)[C@H](O)[C@@H](NC(=O)c2ccc3ccccc3c2)[C@@H]1O (some centres undefined)	2.36

1: COC(=O)c1cn(C2C(O)C(CO)OC(SC)C2O)nn1 (centres undefined)
2: CSC1OC(CO)C(O)C(n2cc(-c3ccccc3)nn2)C1O (centres undefined)
Between these two entries, 1 and 2 , state which has the higher pKd. Selection: enter the item's label.
2
(2: 3.83, 1: 2.85)

* * *

Biological target: Galectin-3 (Mus musculus) (UniProt P16110)
Sequence (P16110 whole entry): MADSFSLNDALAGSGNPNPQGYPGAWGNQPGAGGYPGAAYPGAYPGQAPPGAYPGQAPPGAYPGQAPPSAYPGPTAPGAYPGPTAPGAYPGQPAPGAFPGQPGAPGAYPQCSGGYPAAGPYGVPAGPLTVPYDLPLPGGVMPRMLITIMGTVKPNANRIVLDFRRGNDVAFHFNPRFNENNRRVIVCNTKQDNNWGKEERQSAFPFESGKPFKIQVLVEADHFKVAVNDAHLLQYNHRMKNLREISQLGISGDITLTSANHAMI
Test: Relative affinity for mouse Galectin-3 compared to D-galactose-methyl-beta-glycoside
Assay type: functional
Recorded Metric: Affinity

# annotated cases, reported Affinity shown
Compound	Affinity
CS[C@H]1O[C@@H](COC2O[C@@H](O)[C@H](O)[C@@H](O)[C@H]2O)[C@H](O)[C@@H](NC(=O)c2ccc3ccccc3c2)[C@@H]1O (stereo not given in full)	1
COC(=O)c1cn(C2C(O)C(CO)OC(SC)C2O)nn1 (stereo not given)	3.2
CSC1OC(CO)C(O)C(NC(=O)c2ccc3ccccc3c2)C1O (stereo not given)	16
CSC1OC(CO)C(O)C(NC(=O)c2ccccc2)C1O (stereo not given)	1.7
CSC1OC(CO)C(O)C(n2cc(C(=O)NCCCO)nn2)C1O (stereo not given)	12

a: CCCc1cn(C2C(O)C(CO)OC(SC)C2O)nn1 (stereo not given)
b: CSC1OC(CO)C(O)C(n2cc(C(=O)NCCN3CCOCC3)nn2)C1O (stereo not given)
Which has the smaller recorded Affinity, a or b ? Selection: enter the item's label.
a

* * *

Target: Galectin-3 (Mus musculus) (UniProt P16110)
Test: Relative affinity for mouse Galectin-3 compared to D-galactose-methyl-beta-glycoside
Type: functional
Recorded Metric: Affinity

Molecule	Affinity
CSC1OC(CO)C(O)C(n2cc(C(=O)NCc3ccccc3)nn2)C1O (centres undefined)	42

I: CS[C@H]1O[C@@H](COC2O[C@@H](OC([C@H](O)CO)[C@H](O)[C@@H](NC(C)=O)C(C)=O)[C@H](O)[C@@H](O)[C@H]2O)[C@H](O)[C@@H](NC(=O)c2ccc3ccccc3c2)[C@@H]1O (some centres undefined)
II: CSC1OC(CO)C(O)C(n2cc(-c3ccccc3)nn2)C1O (centres undefined)
Between these two entries, I and II , state which has the higher Affinity. Selection: enter the item's label.
I

* * *

Target: Galectin-3 (Mus musculus) (UniProt P16110)
Assay: Relative affinity for mouse Galectin-3 compared to D-galactose-methyl-beta-glycoside
Type: functional
Recorded Metric: Affinity

Compound	Affinity
CSC1OC(CO)C(O)C(n2cc(C3(O)CCCCC3)nn2)C1O (stereo not drawn)	2.5

I: CNC(=O)c1cn(C2C(O)C(CO)OC(SC)C2O)nn1 (stereo not drawn)
II: CCCCNC(=O)c1cn(C2C(O)C(CO)OC(SC)C2O)nn1 (stereo not drawn)
Which has the smaller recorded Affinity, I or II ? Selection: enter the item's label.
I

Where these numbers come from: ChEMBL document CHEMBL1140248
